Molecular target: rat steroid C17-20-lyase (Rattus norvegicus, UniProt P11715)
Sequence (P11715 1-507): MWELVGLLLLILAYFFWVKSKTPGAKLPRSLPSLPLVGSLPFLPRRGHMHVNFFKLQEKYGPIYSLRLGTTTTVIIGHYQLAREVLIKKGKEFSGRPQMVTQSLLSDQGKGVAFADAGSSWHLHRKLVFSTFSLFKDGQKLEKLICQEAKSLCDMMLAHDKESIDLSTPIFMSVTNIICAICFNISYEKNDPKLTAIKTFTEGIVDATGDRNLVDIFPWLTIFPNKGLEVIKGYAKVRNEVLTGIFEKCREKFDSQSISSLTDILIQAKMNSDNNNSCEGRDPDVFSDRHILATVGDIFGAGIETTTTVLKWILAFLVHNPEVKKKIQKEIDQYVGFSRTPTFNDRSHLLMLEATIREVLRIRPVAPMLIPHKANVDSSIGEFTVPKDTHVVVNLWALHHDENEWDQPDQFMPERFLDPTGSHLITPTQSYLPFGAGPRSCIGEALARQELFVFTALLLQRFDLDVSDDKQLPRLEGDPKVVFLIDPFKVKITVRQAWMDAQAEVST
readoutKind: IC50 (µM)

C/C(=C\Cn1ccnc1)c1ccc2ccccc2c1; 0.013

[P] C(=C\c1ccc2ccccc2c1)/Cc1cccnc1
[Q] C(=C\c1ccc2c(c1)CCCC2)/c1ccncc1
Problem: Exercise: compare P and Q ; which one has the greater IC50? Use the label to indicate which entry you chose.
Result: Q
(Q: 0.19 µM, P: 0.1 µM)
